Parameter inhibition at 5 min, 30 µM: see the listing below.
target: hERG (Homo sapiens, UniProt Q12809); construct: expressed in transfected cells; host or cells: Chinese Hamster Ovary cells (hERG-CHO), stably transfected; assay: hERG Ion Channel Assay (Q-patch, hERG-CHO cells); format: cell-based; settings: human, CHO cells stably transfected with hERG (hERG-CHO), pH 7.4, 30 μM, hERG tail current
Sequence (Q12809 whole entry): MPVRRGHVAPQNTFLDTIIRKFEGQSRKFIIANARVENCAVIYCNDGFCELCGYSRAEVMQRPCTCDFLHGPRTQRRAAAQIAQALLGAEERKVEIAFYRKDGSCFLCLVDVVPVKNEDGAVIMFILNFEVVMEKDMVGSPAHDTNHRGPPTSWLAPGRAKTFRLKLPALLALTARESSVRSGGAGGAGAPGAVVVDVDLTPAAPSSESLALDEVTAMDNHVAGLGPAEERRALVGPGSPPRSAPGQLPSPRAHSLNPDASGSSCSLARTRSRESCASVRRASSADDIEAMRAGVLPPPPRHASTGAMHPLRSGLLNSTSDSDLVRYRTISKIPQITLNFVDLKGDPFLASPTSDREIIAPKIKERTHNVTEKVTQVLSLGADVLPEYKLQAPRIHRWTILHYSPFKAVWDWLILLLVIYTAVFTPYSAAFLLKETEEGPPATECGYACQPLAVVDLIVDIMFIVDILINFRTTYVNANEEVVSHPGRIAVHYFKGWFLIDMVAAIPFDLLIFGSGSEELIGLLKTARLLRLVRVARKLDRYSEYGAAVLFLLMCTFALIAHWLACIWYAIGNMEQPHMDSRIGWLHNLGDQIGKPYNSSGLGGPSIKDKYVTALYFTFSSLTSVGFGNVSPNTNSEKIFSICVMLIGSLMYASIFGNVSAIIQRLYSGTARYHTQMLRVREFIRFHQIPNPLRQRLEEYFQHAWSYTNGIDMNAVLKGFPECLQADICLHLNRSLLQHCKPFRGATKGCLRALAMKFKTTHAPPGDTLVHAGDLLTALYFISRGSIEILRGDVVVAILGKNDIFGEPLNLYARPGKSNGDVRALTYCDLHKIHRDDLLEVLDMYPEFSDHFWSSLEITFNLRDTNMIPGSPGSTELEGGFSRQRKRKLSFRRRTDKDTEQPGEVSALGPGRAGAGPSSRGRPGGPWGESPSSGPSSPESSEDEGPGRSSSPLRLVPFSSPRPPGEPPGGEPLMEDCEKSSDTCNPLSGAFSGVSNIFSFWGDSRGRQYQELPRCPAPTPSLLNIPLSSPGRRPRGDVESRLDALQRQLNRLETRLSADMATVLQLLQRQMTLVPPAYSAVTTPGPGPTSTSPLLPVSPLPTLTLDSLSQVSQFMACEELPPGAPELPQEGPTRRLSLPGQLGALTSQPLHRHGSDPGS
Express it in %; write the number only.

Some solved cases for reference:
INSERT INTO results (compound, quantity, result) VALUES
  ('Cc1cc(S(=O)(=O)N[C@H]2CC[C@H](O)CC2)ccc1-c1ccc(F)cc1F', 'inhibition at 5 min, 30 µM', 62.5),
  ('C[C@]1(O)CC[C@H](NS(=O)(=O)c2ccc(-c3ccc(F)cc3F)c(F)c2)CC1', 'inhibition at 5 min, 30 µM', 69),
  ('C[C@]1(O)CC[C@H](NS(=O)(=O)c2ccc(-c3ccc(F)cc3C(F)(F)F)cc2)CC1', 'inhibition at 5 min, 30 µM', 57);

Here is another compound to look at.
Give its inhibition at 5 min, 30 µM value. Item: C[C@]1(O)CC[C@H](NS(=O)(=O)c2ccc(-c3ccc(F)cc3F)cc2)CC1 [ABD900, reference compound]
51

----------
Assay: Rodent pharmacokinetics study
Format: in vivo, Sprague-Dawley rats
Conditions: rat, tentative oral bioavailability, F=AUC(p.o.)×Dose(i.v.)/AUC(i.v.)×Dose(p.o.)
Experimental: Absorption and metabolic stability were studied using an in vivo pharmacokinetics assay. […] The pharmacokinetic parameters for the test compounds were calculated by Phoenix WinNonlin version 6.3 (Pharsight Corp, CA) using standard non-compartmental methods. […] The area under the plasma concentration-time curve (AUC) was determined by use of the linear trapezoidal rule up to the last measurable concentration (AUClast) and thereafter by extrapolation of the terminal elimination phase to infinity (AUCinf). […]
Please mark condition met if the recorded Bioavail, F is equal to or greater than 70%, and condition not met if it falls below.

INSERT INTO assay_data (compound, class_assignment) VALUES
  ('C[C@]1(O)CC[C@H](NS(=O)(=O)c2ccc(-c3ccc(Cl)cc3C#N)cc2)CC1', 'condition met'),
  ('O=S(=O)(N[C@H]1CC[C@H](O)CC1)c1ccc(-c2ncc(Cl)cc2Cl)cc1 [ABD836, reference compound]', 'condition not met'),
  ('C[C@]1(O)CC[C@@H](NS(=O)(=O)c2ccc(-c3ccc(F)cc3F)c(F)c2)CC1', 'condition not met'),
  ('C[C@]1(O)CC[C@H](NS(=O)(=O)c2ccc(-c3ncc(F)cc3F)c(F)c2)CC1', 'condition not met'),
  ('C[C@]1(O)CC[C@@H](NS(=O)(=O)c2ccc(-c3c(F)cc(F)cc3F)cc2)CC1', 'condition met');

Exam item: decide whether the reported Bioavail, F for C[C@]1(O)CC[C@H](NS(=O)(=O)c2ccc(-c3ncc(Cl)cc3Cl)c(F)c2)CC1 is at least 70%.
condition not met

// next record C[C@]1(O)CC[C@@H](NS(=O)(=O)c2ccc(-c3ncc(F)cc3F)c(F)c2)CC1
condition not met

Also need C[C@]1(O)CC[C@H](NS(=O)(=O)c2ccc(-c3ccc(F)cc3C(F)(F)F)cc2)CC1 , thanks.
condition not met

Same again, this time with C[C@]1(O)CC[C@@H](NS(=O)(=O)c2ccc(-c3ncc(F)cc3F)cc2)CC1
condition not met

Subsequent entry: C[C@]1(O)CC[C@H](NS(=O)(=O)c2ccc(-c3ncc(Cl)cc3Cl)cc2)CC1
condition not met

How about this compound: Cc1cc(S(=O)(=O)NC2CCC(C)(O)CC2)ccc1-c1ccc(F)cc1F (single isomer, unassigned) [REF001, reference compound]
condition not met

Another compound to look at: Cc1cc(S(=O)(=O)N[C@H]2CC[C@H](O)CC2)ccc1-c1ccc(F)cc1F
condition met

Thanks! And C[C@]1(O)CC[C@@H](NS(=O)(=O)c2ccc(-c3ccc(F)cc3F)cc2)CC1 [ABD899, reference compound] ?
condition not met

Ok, now C[C@]1(O)CC[C@@H](NS(=O)(=O)c2ccc(-c3ccc(Cl)cc3C#N)cc2)CC1
condition not met

Also C[C@]1(O)CC[C@@H](NS(=O)(=O)c2ccc(-c3ncc(Cl)cc3Cl)cc2)CC1 ?
condition met

Let us now turn to C[C@]1(O)CC[C@H](NS(=O)(=O)c2ccc(-c3ncc(F)cc3F)cc2)CC1
condition not met

Same question for C[C@]1(O)CC[C@H](NS(=O)(=O)c2ccc(-c3c(F)cc(F)cc3F)cc2)CC1 please.
condition not met

----------
Examples of compounds with documented MTD follow.
test: Maximum Tolerated Dose, Sprague-Dawley rats; details: rat, in vivo; male Sprague-Dawley rats, oral, ascending dose; read-out: Maximum tolerated dose, Males
# unit: mg/kg | format: bare number

# annotated cases, reported MTD shown
INSERT INTO results (compound, quantity, result) VALUES
  ('C[C@]1(O)CC[C@H](NS(=O)(=O)c2ccc(-c3c(F)cc(F)cc3F)cc2)CC1', 'MTD', 30),
  ('C[C@]1(O)CC[C@@H](NS(=O)(=O)c2ccc(-c3ccc(F)cc3F)cc2)CC1 [ABD899, reference compound]', 'MTD', 30),
  ('C[C@]1(O)CC[C@H](NS(=O)(=O)c2ccc(-c3ncc(F)cc3F)c(F)c2)CC1', 'MTD', 80),
  ('C[C@]1(O)CC[C@H](NS(=O)(=O)c2ccc(-c3ccc(Cl)cc3C#N)cc2)CC1', 'MTD', 70),
  ('Cc1cc(S(=O)(=O)NC2CCC(C)(O)CC2)ccc1-c1ccc(F)cc1F (single isomer, unassigned) [REF001, reference compound]', 'MTD', 10),
  ('Cc1cc(S(=O)(=O)N[C@H]2CC[C@H](O)CC2)ccc1-c1ccc(F)cc1F', 'MTD', 10);

Kindly review the next compound as well.
For the compound shown here, C[C@]1(O)CC[C@H](NS(=O)(=O)c2ccc(-c3ncc(Cl)cc3Cl)cc2)CC1 , give the reported MTD.
50
